From: PubChem BioAssay

test: probe aWnt5a binding to arrayed compounds – biochemical, biotinylated probe, 635/667 nm fluorescence, primary screen (AID 1113); details: small-molecule microarray, higher = more signal;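 also: score merges 667 nm fluorescence intensity with signal-to-noise per printed feature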
Parameter: composite z-score. Scope: all listed entries.
readout-type: composite z-score

{"columns": ["molecule", "val"],
 "data": [
  ["Cc1ccc(C(C)CC(O)C2C=CC3C(=O)N(c4ccccc4)C(=O)C3N2Nc2ccccc2)o1 (configuration not stated)", 0.0802],
  ["O=C1O[C@H](c2ccccc2)[C@H](c2ccccc2)N2[C@H]1[C@@H](C(=O)O)[C@]1(C(=O)Nc3ccc(C#CCCO)cc31)[C@H]2c1ccccc1OCCO", -0.139],
  ["[N-]=[N+]=Nc1ccccc1C[C@@]1(C(=O)N2CCOCC2)N=C(c2ccc(OCCCO)cc2)O[C@@H]1c1ccccc1", 0.291],
  ["CC1=C2[C@@H](CCc3ccccc3)OB(O)C[C@@H]2[C@@H]2C(=O)N(C)C(=O)[C@@H]2C1", -0.0519],
  ["CCOC(=O)C[C@H]1[C@H](OC(=O)Cc2ccc3c(c2)OCO3)[C@@H](NC(=O)c2ccc3ccccc3n2)c2cc(OCCCO)ccc2N1C(=O)c1ccc2ccccc2n1", -0.0512],
  ["N#Cc1ccc(NN2C(C(O)c3ccc(Br)cc3)C=CC3C(=O)N(c4ccccc4)C(=O)C32)cc1 (configuration not stated)", 0.234],
  ["NC(=O)[C@H]1[C@@H]2C(=O)O[C@@H](c3ccccc3)[C@@H](c3ccccc3)N2[C@@H](c2ccc(OCCO)cc2)[C@]12C(=O)Nc1ccc(C#CCCO)cc12", 0.055]
]}
